System: SNB-78
Test Name: NCI tumour cell line growth inhibition, 48 h
The source made the active and inactive calls. No stated cut-off is given here; in the data, active = GI50 up to about 1.1 µM and inactive = higher.
Measurement Type: GI50

Worked examples follow.
[
  {
    "Compound": "O=C(C#Cc1ccccc1)NC/C=C/c1ccccc1",
    "GI50": "29.9 µM (inactive)"
  },
  {
    "Compound": "CS/C(=N/C(=O)c1ccccc1Cl)SCCS/C(=N\\C(=O)c1ccccc1Cl)SC",
    "GI50": "> 100 µM (inactive)"
  },
  {
    "Compound": "CCOC(=O)[C@H]1Nc2ccc(OC)cc2C2c3ccccc3CC21 (stereo partly specified)",
    "GI50": "> 100 µM (inactive)"
  }
]

Qu. Test system SNB-78; read-out GI50; what value for CC[C@@]1(OC(=O)CCC(=O)O)C(=O)OCc2c1cc1n(c2=O)Cc2cc3ccccc3nc2-1 ?
Ans. 2.77 µM (inactive)

Qu. Test system SNB-78; read-out GI50; what value for N#CC1=C(N)Oc2c(ccc3cccnc23)C1c1ccccc1 (stereo unspecified) ?
Ans. 1.45 µM (inactive)

Qu. Test system SNB-78; read-out GI50; what value for CN(C)CCSc1nccc(-c2cc3ccccc3s2)n1 ?
Ans. 16.3 µM (inactive)
